Each recorded value in this set is attributed to ChEMBL document CHEMBL2086255.

Assay: Fraction unbound in human plasma at 10 uM after 6 hrs
Assay type: ADME, cell-free
Threshold 0.04. fraction unbound at 6 h, 10 µM below it: true. fraction unbound at 6 h, 10 µM at it or above: false.

record smiles	class name
C=CC(=O)Nc1ccc(S(=O)(=O)N2CCN(C(=O)C3CCCC3)CC2)cc1	false
C=CC(=O)Nc1ccc(S(=O)(=O)N2CCN(C(=O)C34CC5CC(CC(C5)C3)C4)CC2)cc1	true
C=CC(=O)Nc1cccc(S(=O)(=O)N2CCN(C(=O)OCc3ccccc3)CC2)c1	true
C=CC(=O)Nc1ccc(S(=O)(=O)N2CCN(C(=O)C3CC3)CC2)cc1	false
C=CC(=O)Nc1ccc(S(=O)(=O)N2CCN(C(=O)C3CC3)CC2)cn1	false
